- target_entity: Carnitine O-palmitoyltransferase 1, liver isoform (Homo sapiens)
- Sequence (P50416 whole entry): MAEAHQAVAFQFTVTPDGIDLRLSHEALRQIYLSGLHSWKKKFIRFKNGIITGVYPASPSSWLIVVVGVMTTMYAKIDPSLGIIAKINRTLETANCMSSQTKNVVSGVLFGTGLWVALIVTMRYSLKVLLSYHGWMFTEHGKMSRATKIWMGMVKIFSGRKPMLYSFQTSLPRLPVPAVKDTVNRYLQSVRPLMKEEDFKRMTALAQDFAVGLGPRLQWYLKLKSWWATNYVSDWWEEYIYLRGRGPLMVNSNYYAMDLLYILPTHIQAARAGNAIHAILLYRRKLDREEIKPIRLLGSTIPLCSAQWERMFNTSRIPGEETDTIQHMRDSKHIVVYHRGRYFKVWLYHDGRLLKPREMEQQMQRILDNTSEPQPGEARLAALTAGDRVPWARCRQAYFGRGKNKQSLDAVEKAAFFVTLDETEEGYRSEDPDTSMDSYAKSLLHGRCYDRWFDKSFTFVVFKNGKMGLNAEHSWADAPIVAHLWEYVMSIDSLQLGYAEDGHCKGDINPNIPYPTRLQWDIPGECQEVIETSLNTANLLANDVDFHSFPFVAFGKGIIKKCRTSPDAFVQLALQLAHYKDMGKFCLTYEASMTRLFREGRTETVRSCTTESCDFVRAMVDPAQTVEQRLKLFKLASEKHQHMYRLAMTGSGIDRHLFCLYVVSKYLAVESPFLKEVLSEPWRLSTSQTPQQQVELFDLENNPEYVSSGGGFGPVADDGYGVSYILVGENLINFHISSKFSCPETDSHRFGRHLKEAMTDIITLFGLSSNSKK
- experiment_summary: SUPPLEMENTARY: Inhibition of Carnitine palmitoyltransferase 1, liver isoform
readout_kind: IC50 (nM)

Observe how each entry below is paired with its result.
COc1ccc(Cl)cc1Cn1cc(C(=O)O)c2ccc(C(=O)Nc3ccccc3)cc21 = 99.6
O=C(O)COc1cccc(-c2noc([C@H]3CCCCN3C(=O)COc3ccccc3)n2)c1 = 196
O=C(COc1ccccc1)N1CCCC[C@@H]1c1nc(-c2ccc3[nH]cnc3c2)no1 = 26.1
COc1ccc(Cl)cc1S(=O)(=O)N1COCc2ccc(C(=O)Nc3ccc(CC(=O)O)cc3)cc21 = 187
CC(=O)Nc1cc(F)cc(-c2n[nH]c([C@H]3CCCCN3C(=O)COc3ccccc3)n2)c1 = 26.4

A = COC1CCC(c2nc([C@H]3CCCCN3C(=O)COc3ccccc3)no2)CC1 (some centres not stated)
B = COc1ccc(Cl)cc1S(=O)(=O)c1cn(CCCC(=O)O)c2ccc(C(=O)Nc3ccccc3)cc12
Prompt line: Between A and B , which one shows the larger IC50 value? Answer with the label corresponding to your selection.
Response line: A
(A: 191 nM, B: 15.1 nM)

A = COc1ccc2[nH]cc(C(=O)COc3ccncc3)c2c1
B = O=C(O)c1cncc(-c2noc([C@H]3CCCCN3C(=O)COc3ccccc3)n2)c1
C = COc1ccc(Cl)cc1CN1C(=O)C2(CC2)c2ccc(C(=O)Nc3ccc(C(=O)O)cc3)cc21
D = COc1ccc(Cl)cc1S(=O)(=O)N1CC(C(=O)O)Oc2ccc(C(=O)Nc3ccc(F)cc3)cc21 (configuration not stated)
Prompt line: Sequence the entries by IC50, beginning with the highest number. API: response body holds the labels in the requested order.
Response line: A, B, C, D
(A: 658 nM, B: 226 nM, C: 123 nM, D: 80.9 nM)
